Target: rat α-thrombin (Rattus norvegicus)
Construct: rat α-thrombin (Molecular Innovations) were used at final concentrations of 2 nM and 3 nM; purchased Molecular Innovations
Assay: Protease inhibition, Ki for rat α-thrombin (fluorogenic substrate Z-Gly-Gly-Arg-AMC)
Format: biochemical
Conditions: rat alpha thrombin; average of R1-R3; read-out: Ki Average, rat alpha thrombin inhibition
Please go through the items and note down their Ki.
Numbers only, in nM.

Quick one: give me Ki for each item below, same order please.
1. O=C1CSCCC[C@H](NC(=O)c2ccc(Cl)s2)C(=O)N[C@@H](Cc2ccccc2)C(=O)N2CCC[C@@H]2CC(=O)NCCSC1
2. O=C1C[C@H]2CCCN2C(=O)[C@H](Cc2ccccc2)NC(=O)[C@@H](NC(=O)c2ccc(Cl)s2)CCSC/C=C/CSCCN1
3. O=C1C[C@H]2CCCN2C(=O)[C@H](Cc2ccccc2)NC(=O)[C@@H](NC(=O)c2ccc(Cl)s2)CCSCc2cccc(n2)CSCCN1
4. O=C1C[C@H]2CCCN2C(=O)[C@H](Cc2ccccc2)NC(=O)[C@@H](NC(=O)c2ccc(Cl)s2)CCCSCc2cccc(n2)CSCCN1
5. O=C1C[C@H]2CCCN2C(=O)[C@H](Cc2ccccc2)NC(=O)[C@@H](NC(=O)c2ccc(Cl)s2)CCCSC/C=C/CSCCN1
6. O=C1C[C@H]2CCCN2C(=O)[C@H](Cc2ccccc2)NC(=O)[C@@H](NC(=O)c2ccc(Cl)s2)CSCc2cccc(n2)CSCCN1

Given back:
4.1
6.1
48.7
18.4
27.1
183

###

Molecular target: human α-thrombin (Homo sapiens, UniProt P00734)
Experiment: Sub-library screen for active and permeable cyclic peptides (PAMPA plus thrombin inhibition)
Type: biochemical
Details: donor sample diluted to theoretical equilibrium (1 μM in assay); crude; slopes normalized to DMSO
Lab note: compare Residual thrombin activity: Equilibrated sample against 90. Equal or greater, write 1.0. Smaller, write 0.0.

Example cases with answers are listed next.
| record smiles | target system | assigned class |
| --- | --- | --- |
| COc1ccc(C[C@@H]2NC(=O)[C@@H](NC(=O)c3ccc(Cl)s3)CSCCS(=O)(=O)CCSCCNC(=O)C[C@H]3CCCN3C2=O)cc1 | human α-thrombin (Homo sapiens, UniProt P00734) | 1.0 |
| CN1C(=O)[C@@H](NC(=O)c2ccc(Cl)s2)CSCc2cccc(n2)CSCCNC(=O)C[C@H]2CCCN2C(=O)[C@@H]1Cc1ccccc1 | human α-thrombin (Homo sapiens, UniProt P00734) | 1.0 |
| N#Cc1ccc(C[C@@H]2NC(=O)[C@@H](NC(=O)c3ccc(Cl)s3)CSCC(=O)CSCCNC(=O)C[C@H]3CCCN3C2=O)cc1 | human α-thrombin (Homo sapiens, UniProt P00734) | 1.0 |
| O=C1C[C@H]2CCCN2C(=O)[C@H](Cc2ccccc2)NC(=O)[C@@H](NC(=O)c2ccc(Cl)s2)CCCSCc2ccc(cc2)CSCCN1 | human α-thrombin (Homo sapiens, UniProt P00734) | 0.0 |

Asked: // inclusive: Residual thrombin activity: Equilibrated sample at least 90? input: N#Cc1ccc(C[C@@H]2NC(=O)[C@@H](NC(=O)c3ccc(Cl)s3)CSCc3ccc(cc3)CSCCNC(=O)C[C@H]3CCCN3C2=O)cc1
Given back: 1.0

Asked: // inclusive: Residual thrombin activity: Equilibrated sample at least 90? input: O=C1CSCCC[C@H](NC(=O)c2ccc(Cl)s2)C(=O)N[C@@H](Cc2ccc(C(F)(F)F)cc2)C(=O)N2CCC[C@@H]2CC(=O)NCCSC1
Given back: 1.0

Asked: Has O=C1C[C@H]2CCCN2C(=O)[C@H](Cc2ccc(Cl)cc2)NC(=O)[C@@H](NC(=O)c2ccc(Cl)s2)CCSCc2ccccc2CSCCN1 a recorded Residual thrombin activity: Equilibrated sample greater than or equal to 90?
Given back: 1.0

Asked: Does the molecule CN1C(=O)[C@@H](NC(=O)c2ccc(Cl)s2)CSCCS(=O)(=O)CCSCCNC(=O)C[C@H]2CCCN2C(=O)[C@@H]1Cc1ccccc1 have recorded Residual thrombin activity: Equilibrated sample that is 90 or more?
Given back: 1.0

Asked: Evaluate CN1C(=O)[C@@H](NC(=O)c2ccc(Cl)s2)CCCSCc2cccc(c2)CSCCNC(=O)C[C@H]2CCCN2C(=O)[C@@H]1Cc1ccccc1 : Residual thrombin activity: Equilibrated sample at minimum 90?
Given back: 1.0

Asked: Is Residual thrombin activity: Equilibrated sample for Cc1cccc(C[C@@H]2NC(=O)[C@@H](NC(=O)c3ccc(Cl)s3)CCSCCS(=O)(=O)CCSCCNC(=O)C[C@H]3CCCN3C2=O)c1 at or above 90?
Given back: 0.0

Asked: Is Residual thrombin activity: Equilibrated sample for COc1ccc(C[C@@H]2NC(=O)[C@@H](NC(=O)c3ccc(Cl)s3)CSC/C=C/CSCCNC(=O)C[C@H]3CCCN3C2=O)cc1 at or above 90?
Given back: 1.0

###

Assay: Passive artificial membrane permeability (PAMPA)
Conditions: PAMPA; replicate R1; TIC of top well sample relative to sample at theoretical equilibrium
measurement name: Permeability% R1 (%)
Answers are plain numbers, in %.

Worked cases, Permeability% R1 given:
| molecule | u | value reported |
| --- | --- | --- |
| O=C1CC2CCN(CC2)C(=O)[C@H](Cc2ccccc2)NC(=O)[C@@H](NC(=O)c2ccc(Cl)s2)CSCCS(=O)(=O)CCSCCN1 | % | 3.95 |
| NC(=O)NCCC[C@@H]1NC(=O)[C@@H](NC(=O)c2ccc(Cl)s2)CNC(=O)CCSCc2cccc(n2)CSCCNC1=O | % | 1.25 |
| CC(C)[C@@H]1NC(=O)[C@@H](NC(=O)c2ccc(Cl)s2)CNC(=O)CCSCc2cccc(n2)CSCCNC1=O | % | 7.10 |
| O=C1C[C@H]2CCCN2C(=O)[C@H](Cc2ccccc2)NC(=O)[C@@H](NC(=O)c2ccc(Cl)s2)CSCCS(=O)(=O)CCSCCN1 [peptide 11] | % | 0.47 |
| O=C(N[C@H]1CSCc2cccc(n2)CSCCNC(=O)[C@H](Cc2c[nH]cn2)NC(=O)C2(CCCC2)NC1=O)c1ccc(Cl)s1 | % | 0.22 |

Each molecule below has a reported value. Please supply its Permeability% R1.
1. O=C1CCSCc2ccc(cc2)CSCCNC(=O)[C@H](CNC(=O)c2ccc(Cl)s2)NC(=O)[C@H](Cc2ccccn2)N1
2. O=C1CC2CCN(CC2)C(=O)[C@H](Cc2ccccc2)NC(=O)[C@@H](NC(=O)c2ccc(Cl)s2)CSCc2cccc(n2)CSCCN1
3. CC(=O)CC(c1ccccc1)c1c(O)c2ccccc2oc1=O (centres unmarked) [Warfarin, warfarin, reference compound]

Given back:
1: 13.02; 2: 29.62; 3: 48.28

###

Please go through the items and note down their Ki.
Target: human α-thrombin (Homo sapiens)
Test: Protease inhibition, Ki for human α-thrombin (fluorogenic substrate Z-Gly-Gly-Arg-AMC)
Type: biochemical
Conditions: purified peptide; mean and s.d. of three measurements; read-out: Ki human α-thrombin
Answers are plain numbers, in nM.

| molecule | Ki, nM |
| --- | --- |
| O=C1C[C@H]2CCCN2C(=O)[C@H](Cc2ccccc2)NC(=O)[C@@H](NC(=O)c2ccc(Cl)s2)CSC/C=C/CSCCN1 [peptide 32] | 8.9 |
| O=C1C[C@H]2CCCN2C(=O)[C@H](Cc2ccccc2)NC(=O)[C@@H](NC(=O)c2ccc(Cl)s2)CSCCS(=O)(=O)CCSCCN1 [peptide 11] | 82 |

Asked: Checklist item: Ki tested on human α-thrombin (Homo sapiens), entry O=C1C[C@H]2CCCN2C(=O)[C@H](Cc2ccccc2)NC(=O)[C@@H](NC(=O)c2ccc(Cl)s2)CCC=CCCCCN1 [peptide 43] , value?
Given back: 50

###

Please respond with reported microsomal CLint for every item in the list.
Assay: Metabolic stability in rat liver microsomes (RLMs)
Settings: rat, microsomes, CL (ul/min/mg protein) R2, RLM CL; replicate R2
One number for each entry, in µL/min/mg.

Some solved entries appear below for comparison.
| compound | u | microsomal CLint |
| --- | --- | --- |
| O=C1CCSCc2cccc(n2)CSCCNC(=O)C2CN(C(=O)c3ccc(Cl)s3)CCN2C(=O)[C@H](CO)N1 (stereo partly shown) [compound 24] | µL/min/mg | 76.9 |
| O=C1CCSCc2cccc(n2)CSCCNC(=O)[C@H](CO)NC(=O)[C@@H](NC(=O)c2ccc(Cl)s2)CN1 [compound 17] | µL/min/mg | 98.2 |
| O=C1NCCSCc2cccc(n2)CSCCC(=O)N2CCC[C@H]2C(=O)N2CCN(C(=O)c3ccc(Cl)s3)CC12 (stereo partly shown) [compound 23] | µL/min/mg | 70.2 |

Now for a further compound.
Asked: Which measured microsomal CLint value corresponds to CC(C)[C@@H]1NC(=O)[C@@H](NC(=O)c2ccc(Cl)s2)CNC(=O)CCSCc2cccc(n2)CSCCNC1=O [compound 19] ?
Given back: 42.3
